- Measurement Protocol: Toxicity liver stage against HepG2, at 10uM
- Format: cell-based
- Set-up: test concentration 10 uM, cell line HepG2-A16-CD81EGFP
- Measurement Parameters: human, HepG2-A16-CD81EGFP cells; read-out: INHIBITION
Readout Type: cytotoxicity at 10 µM (%)
Respond numerically; units are % and should not be typed.

These recorded examples may help you get a feel for the data.
Prompt: Please look at this compound and report its cytotoxicity at 10 µM: O=C(Cc1n[nH]c2ccccc12)N1CCC(Nc2cccnn2)CC1
Response: -7.44

Prompt: Please look at this compound and report its cytotoxicity at 10 µM: O=C(Nc1nccs1)NC1CCN(Cc2ccccc2)CC1
Response: -7.07

Prompt: Please look at this compound and report its cytotoxicity at 10 µM: Cn1cc(-c2cccc(CNC(=O)N3CCC[C@@H]3CO)c2)cn1
Response: -5.89

Prompt: Please look at this compound and report its cytotoxicity at 10 µM: CC(C)Cc1nnc(NCc2ccsc2)o1
Response: -0.699

Prompt: Please look at this compound and report its cytotoxicity at 10 µM: OC1COCCN(Cc2cccc(N3CCOCC3)c2)C1 (stereo not drawn)
Response: -12.6

Prompt: Please look at this compound and report its cytotoxicity at 10 µM: O=C(CCc1cc(Cl)no1)N1CCCCC1CCN1CCOCC1 (stereo not drawn)
Response: -9.97

Prompt: Please look at this compound and report its cytotoxicity at 10 µM: CC(C)(CN1CCC2(CCCNC2)C1)N1CCOCC1 (stereo not drawn)
Response: -141

Prompt: Please look at this compound and report its cytotoxicity at 10 µM: CCOc1cc(C(=O)N2CCOCC2)cc2occc12
Response: -4.92

Prompt: Please look at this compound and report its cytotoxicity at 10 µM: COC(=O)CNCC1(O)CCCN(Cc2cccc(F)c2F)C1=O (stereo not drawn)
Response: -6.87

Prompt: Please look at this compound and report its cytotoxicity at 10 µM: CCC(O)CNC(=O)C1(N(C)Cc2ccccc2)Cc2ccccc2C1 (stereo not drawn)
Response: 7.62

Next:
Prompt: Please look at this compound and report its cytotoxicity at 10 µM: CCC(CO)N(Cc1ccsc1)Cc1cccc(O)c1 (stereo not drawn)
Response: 0.616

Prompt: Please look at this compound and report its cytotoxicity at 10 µM: CN(C)C(=O)COCc1cncc2c1CCN(Cc1ccccn1)C2
Response: -2.51

Prompt: Please look at this compound and report its cytotoxicity at 10 µM: COCc1noc(-c2nn(-c3ccc(F)cc3)c3c2CCC3)n1
Response: 2.87

Prompt: Please look at this compound and report its cytotoxicity at 10 µM: Cn1c(CCCNc2nccnc2C#N)nc2ccccc21
Response: -8.98

Prompt: Please look at this compound and report its cytotoxicity at 10 µM: Cc1csc2c(N3CCNC(C(=O)N4CCCC4)C3)ncnc12 (stereo not drawn)
Response: -5.6

---

- Measurement Protocol: Toxicity liver stage against HepG2, at 10uM
- Assay type: cell-based
- Set-up: test concentration 10 uM, cell line HepG2-A16-CD81EGFP
- Measurement Parameters: human, HepG2-A16-CD81EGFP cells; read-out: INHIBITION
Readout Type: cytotoxicity at 10 µM

These recorded examples may help you get a feel for the data.
Prompt: Please look at this compound and report its cytotoxicity at 10 µM: Cc1cnn(C2CN(C(C)c3nc(-c4ccccc4)no3)C2)c1 (configuration not stated)
Response: -2.21%

Prompt: Please look at this compound and report its cytotoxicity at 10 µM: Cc1ccccc1COCCOCn1c(C)cc(=O)[nH]c1=O
Response: 2.56%

Prompt: Please look at this compound and report its cytotoxicity at 10 µM: COCCCNC(=O)Nc1ccc(F)c(C(N)=O)c1
Response: -12.9%

Prompt: Please look at this compound and report its cytotoxicity at 10 µM: Cc1nc(CCCNC(=O)C2CC(=O)N(C(C)(C)C)C2)sc1C (configuration not stated)
Response: -6.86%

Prompt: Please look at this compound and report its cytotoxicity at 10 µM: Cc1noc(C)c1C(=O)NCC(O)c1ccc(F)cc1F (configuration not stated)
Response: -3.56%

Prompt: Please look at this compound and report its cytotoxicity at 10 µM: O=C(O)c1cc(S(=O)(=O)Nc2ccc(Cl)cc2)cc2c1OCCO2
Response: 2.33%

Prompt: Please look at this compound and report its cytotoxicity at 10 µM: O=C(CC1=CCCCC1)NCc1ccnc(OC2CCOCC2)c1
Response: -0.103%

Prompt: Please look at this compound and report its cytotoxicity at 10 µM: CCCC(=O)NC(C)(C)Cc1ccccc1OC
Response: 5.55%

Prompt: Please look at this compound and report its cytotoxicity at 10 µM: Cn1cc(CN2Cc3c(cnn3C)C(COCC3CC3)C2)cn1 (configuration not stated)
Response: -2.8%

Prompt: Please look at this compound and report its cytotoxicity at 10 µM: Cc1ccsc1C1CC(=O)Nc2c1cnn2C(C)C (configuration not stated)
Response: -7.7%

Next:
Prompt: Please look at this compound and report its cytotoxicity at 10 µM: COc1ccc(CNc2nc(C3CC3)no2)cc1OC
Response: 4.44%

Prompt: Please look at this compound and report its cytotoxicity at 10 µM: c1cnc(-c2nc(CNC3CCc4ncnn4C3)cs2)nc1 (configuration not stated)
Response: -5.66%

Prompt: Please look at this compound and report its cytotoxicity at 10 µM: CCn1nc2c(cc1=O)CN(Cc1nc3ccccc3o1)CC2
Response: -8.9%

Prompt: Please look at this compound and report its cytotoxicity at 10 µM: CCNc1ccnc(NCc2cn3nc(C)sc3n2)n1
Response: -3.41%

Prompt: Please look at this compound and report its cytotoxicity at 10 µM: COc1cc(-c2nc(CN(CCO)CCO)c(C)o2)ccc1F
Response: -10.2%

Prompt: Please look at this compound and report its cytotoxicity at 10 µM: CCS(=O)(=O)NCC1OCCc2cn(CCOC)nc21 (configuration not stated)
Response: 9.43%

---

- Measurement Protocol: Toxicity liver stage against HepG2, at 10uM
- Type: cell-based
- Parameters: test concentration 10 uM, cell line HepG2-A16-CD81EGFP
- Measurement Parameters: human, HepG2-A16-CD81EGFP cells; read-out: INHIBITION
Below, each of the compounds is paired with its reported cytotoxicity at 10 µM value.
Respond numerically; units are % and should not be typed.

These recorded examples may help you get a feel for the data.
Prompt: Please look at this compound and report its cytotoxicity at 10 µM: Cc1ccc(CN2CCc3[nH]nc(C(=O)N4CCNC(=O)C4)c3C2)s1
Response: 12

Prompt: Please look at this compound and report its cytotoxicity at 10 µM: CCc1nnc(CN2CCN(CC(O)c3ccccc3)CC2)o1 (configuration not stated)
Response: -12.3

Prompt: Please look at this compound and report its cytotoxicity at 10 µM: CCn1nc(CC(C)C)cc1C(=O)N1CC(c2ccncc2)C1
Response: -6.38

Prompt: Please look at this compound and report its cytotoxicity at 10 µM: COc1cc(C)ccc1OCC(=O)NS(=O)(=O)c1ccc(Br)s1
Response: -7.72

Prompt: Please look at this compound and report its cytotoxicity at 10 µM: CC(C)(C)c1n[nH]cc1CN1CCc2nc3ccsc3c(=O)n2CC1
Response: 6.12

Next:
Prompt: Please look at this compound and report its cytotoxicity at 10 µM: O=C(c1ccc(N2CCCC2)nn1)N1CCCC(n2ccnc2)C1 (configuration not stated)
Response: -16.2

Prompt: Please look at this compound and report its cytotoxicity at 10 µM: O=C1CCC2(CCCN(C(=O)c3ccc[nH]3)C2)CN1Cc1cccnc1 (configuration not stated)
Response: 9.88

Prompt: Please look at this compound and report its cytotoxicity at 10 µM: O=C(CCC(=O)N1CCCC1c1ccsc1)N1CCOCC1 (configuration not stated)
Response: -10.2

Prompt: Please look at this compound and report its cytotoxicity at 10 µM: CCCNC(=O)C(C)Oc1ccc(F)cc1 (configuration not stated)
Response: -3.76

Prompt: Please look at this compound and report its cytotoxicity at 10 µM: Cc1nc(C)c(Cc2nc(C3CC3)n[nH]2)c(=O)[nH]1
Response: 2.39

Prompt: Please look at this compound and report its cytotoxicity at 10 µM: O=C1CCC2(CCC(NC3CCOCC3)CC2)N1Cc1ccccc1 (configuration not stated)
Response: -0.0368

Prompt: Please look at this compound and report its cytotoxicity at 10 µM: Cc1cccc(CN(C(=O)NCc2ccccn2)C2CC2)c1
Response: -6.73

---

- Measurement Protocol: Toxicity liver stage against HepG2, at 10uM
- Format: cell-based
- Parameters: test concentration 10 uM, cell line HepG2-A16-CD81EGFP
- Measurement Parameters: human, HepG2-A16-CD81EGFP cells; read-out: INHIBITION
Readout Type: cytotoxicity at 10 µM (%)
Respond numerically; units are % and should not be typed.

These recorded examples may help you get a feel for the data.
Prompt: Please look at this molecule and report its cytotoxicity at 10 µM: CC(C)(C)c1csc(CCNC(=O)C(c2ccccc2)n2cnnn2)n1 (stereo unspecified)
Response: 6.53

Prompt: Please look at this molecule and report its cytotoxicity at 10 µM: CO[C@@]1(C)C[C@@H](O)C12CCN(C(=O)CCn1c(C)cccc1=O)CC2
Response: 3.43

Prompt: Please look at this molecule and report its cytotoxicity at 10 µM: O=C1CNc2ncnc(N3CCN(Cc4ccccc4F)CC3)c2N1
Response: 9.87

Next:
Prompt: Please look at this molecule and report its cytotoxicity at 10 µM: CCc1c(O)nc(SC(C)CC)n(-c2ccccc2)c1=O (stereo unspecified)
Response: 4.22

Prompt: Please look at this molecule and report its cytotoxicity at 10 µM: CC(C)Nc1nc(C(=O)Nc2ccccn2)cs1
Response: 5.15
